This collection of values is drawn from ChEMBL document CHEMBL5604063.

test_target: Genome polyprotein (dengue virus type 2, UniProt P29990)
Sequence (P29990 1346-1475 limits assumed): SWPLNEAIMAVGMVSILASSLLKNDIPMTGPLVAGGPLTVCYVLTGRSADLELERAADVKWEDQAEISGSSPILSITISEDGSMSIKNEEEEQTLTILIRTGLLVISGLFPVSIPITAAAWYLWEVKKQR
Sequence (P29990 1476-2093 limits assumed): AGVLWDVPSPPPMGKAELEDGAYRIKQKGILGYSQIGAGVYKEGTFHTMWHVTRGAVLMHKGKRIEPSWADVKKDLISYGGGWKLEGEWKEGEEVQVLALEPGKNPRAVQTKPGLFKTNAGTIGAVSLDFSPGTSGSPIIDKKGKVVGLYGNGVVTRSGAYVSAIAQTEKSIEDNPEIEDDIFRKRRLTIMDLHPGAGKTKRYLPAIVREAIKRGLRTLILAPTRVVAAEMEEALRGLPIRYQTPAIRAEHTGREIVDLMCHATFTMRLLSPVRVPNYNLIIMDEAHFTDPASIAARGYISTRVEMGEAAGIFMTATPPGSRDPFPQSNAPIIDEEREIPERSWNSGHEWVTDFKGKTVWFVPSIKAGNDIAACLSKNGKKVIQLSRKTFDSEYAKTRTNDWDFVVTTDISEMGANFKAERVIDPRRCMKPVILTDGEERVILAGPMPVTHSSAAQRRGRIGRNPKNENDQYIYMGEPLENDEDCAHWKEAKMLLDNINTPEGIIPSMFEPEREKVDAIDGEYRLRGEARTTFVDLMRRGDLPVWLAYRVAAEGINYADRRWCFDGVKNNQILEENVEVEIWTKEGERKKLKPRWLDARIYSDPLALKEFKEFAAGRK
Type: functional, Thailand/16681/1984
pIC50: −log10 of the molar value.
value_type: pIC50

{"columns": ["smiles_record", "result"],
 "data": [
  ["COc1ccc2c(O)nn(S(=O)(=O)c3ccc(C(=O)O)cc3)c2c1", "< 4.00"],
  ["NC(=O)c1[nH]c2ccc(Br)cc2c1Cc1ccc(-c2nnn[nH]2)cc1", 4.26]
]}

Could I get pIC50 for every one of these entries?
1. NCc1cccc(NC(=O)[C@@H](NC(=O)OCc2ccccc2)c2cccc(-c3ccc(CN)cc3F)c2)c1
2. C[C@@]1(c2cc(Cl)cc(NC(=O)OCc3ccccc3)c2)C[C@H]1c1cccc(CN)c1
3. O=C(Nc1ccc2c(c1)CNC2)c1cc(C(F)(F)F)cc2[nH]ccc12
4. C[C@H](C1CC1)n1ncc2c(C(=O)Nc3ccc4c(c3)CNC4)cc(C3CC3)nc21
5. NCc1cccc([C@H](CCCO)Nc2cc(Cl)cc(NC(=O)OCc3ccccc3)c2)c1
6. Cc1c(C(=O)Nc2cccc(CN)c2)cc(C2CCC2)n1C

Return:
1. < 4.00
2. 4.05
3. < 4.00
4. < 4.00
5. 4.07
6. < 4.00

---

test_target: Genome polyprotein (dengue virus type 2)
Assay type: functional, Thailand/16681/1984
pIC50: −log10 of the molar value.
I'd be grateful if you could share measured pIC50 for these entries.

Here are 3 compounds together with their reported answers.
{"columns": ["smiles_record", "value_type", "result"],
 "data": [
  ["CS(=O)(=O)c1cncc(-c2cc(F)cc(C(=O)Nc3ccc4c(c3)CNC4)c2)c1", "pIC50", "< 4.00"],
  ["NS(=O)(=O)c1ccc(C(F)F)cc1-c1ccc2[nH]c(C(=O)O)cc2c1", "pIC50", "< 4.00"],
  ["Cc1c(C(=O)Nc2cc(CCCN)ccn2)cc(C2CCCCC2)n1C", "pIC50", "< 4.00"]
]}

Could I get pIC50 for every one of these entries?
1. O=C(O)COc1cc2c(cc1Cc1c[nH]c3ccc(Cl)cc13)OCO2
2. Cc1ocnc1COc1cccc([C@H](NC(=O)OCc2ccccc2)C(=O)Nc2cccc(CN)c2)c1

Return:
4.05
< 4.00
